TARGET_OF_ASSAY: HLA-A*2402 (human)
ASSAY_INFO: competition with 125I-labelled standard peptide for purified HLA, gel filtration
Give measured binding affinity ratio (IC50 of standard peptide / IC50 of test peptide) for each item. Keep answers brief.
Give bare numbers.

Worked cases, answers included:
BINDER	VAL
VYCKTVLEL (modifications not checked) [HPV18 E6 position 33, 9-mer …]	0.022
CMCCKCEARI (modifications not checked) [HPV18 E7 position 63, 10-mer …]	0.0001
VFEFAFKDLF (modifications not checked) [HPV18 E6 position 44, 10-mer …]	0.036

Query: Any idea what its binding affinity ratio (IC50 of standard peptide / IC50 of test peptide) is? The binder is PYKLPDLCTEL (modifications not checked) [HPV18 E6 position 11, 11-mer …]
Reply: 0.0064
